Molecular target: T1, EGFR-Fc fusion protein (recombinant EGFR extracellular region-Fc) (human, UniProt P00533 25-645)
T1 construct: extracellular domain; not shown: Fc part supplied by vector pABG1
Test: BLI ForteBio QKe, biotinylated EGFR-Fc on streptavidin sensor, antibody 20 nM; fold reduction of affinity, parent Ame55 = 1;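 note: parent antibody affinity set as 1, with values giving the fold drop in affinity of each mutant antibody relative to that parent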
MEASUREMENT_LABEL: Affinity change (fold)
Output spec: scalar in fold, unitless text.

Solved cases (2 shown):
Ame55 mutant, heavy chain 101A (antibody, V domains shown, Mutant of Ame55) VH: EVQLVQSGAEVKKPGESLKISCKGSGYSFTSYWIGWVRQMPGKGLEWMGIIYPGDSDTRYSPSFQGQVTISADKSISTAYLQWSSLKASDTAMYYCARGIAYPSNVAVWGQGTLVTVSS VL: SYELTQPPSVSVAPGQTARITCSGDALGDKYASWYQQKPGQAPVLVIYEDSKRPSGIPERFSGSNSGNTATLTISGTQAEDEADYYCSVWDGDWGMPVFGGGTKLTVLG :: 4
Ame55 mutant, light chain 26K(C3) (antibody, V domains shown, Mutant of Ame55) VH: EVQLVQSGAEVKKPGESLKISCKGSGYSFTSYWIGWVRQMPGKGLEWMGIIYPGDSDTRYSPSFQGQVTISADKSISTAYLQWSSLKASDTAMYYCARGIIYPSNVAVWGQGTLVTVSS VL: SYELTQPPSVSVAPGQTARITCSGDKLGDKYASWYQQKPGQAPVLVIYEDSKRPSGIPERFSGSNSGNTATLTISGTQAEDEADYYCSVWDGDWGMPVFGGGTKLTVLG :: 0.3

Task item: # get_value(readout='Affinity change', item= Ame55 mutant, light chain 32I (antibody, V domains shown, Mutant of Ame55) VH: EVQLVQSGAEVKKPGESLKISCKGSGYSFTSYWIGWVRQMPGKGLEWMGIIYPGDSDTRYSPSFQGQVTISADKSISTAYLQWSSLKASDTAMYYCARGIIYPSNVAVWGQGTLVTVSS VL: SYELTQPPSVSVAPGQTARITCSGDALGDKYISWYQQKPGQAPVLVIYEDSKRPSGIPERFSGSNSGNTATLTISGTQAEDEADYYCSVWDGDWGMPVFGGGTKLTVLG )
Reply: 1
